Biological target: CDK1-CYCLIN B (Homo sapiens)
Assay: CDK protein kinase inhibition by ADP-Glo assay, CDK1-CYCLIN B
Format: biochemical
Details: ADP-Glo, 1000 μM ATP; Table 13; read-out: CDK1-CYCLINB, IC50
ATTRIBUTE_MEASURED: IC50

>>> observed_result("C[C@H]1CCCOc2cncc(c2)Nc2cc(n[nH]2)[C@H]2CC[C@H](C2)OC(=O)N1")
"0.01 to 0.05 µM"

Input `C[C@@H]1CCCNC(=O)O[C@@H]2CC[C@@H](C2)c2cc([nH]n2)Nc2cncc(c2)O1` , output reported IC50.
0.1 to 0.5 µM

Input `O=C1NC23CC(CCCc4cc(ccn4)Nc4cc(n[nH]4)[C@H]4CC[C@H](C4)O1)(C2)C3` , output reported IC50.
≤ 0.01 µM

Input `C[C@@H]1CCCOc2cncc(c2)Nc2cc(n[nH]2)[C@H]2CC[C@H](C2)OC(=O)N1` , output reported IC50.
0.01 to 0.05 µM

---

The entries below are paired with their reported pIC50.
Target: CDK1-CYCLIN B (Homo sapiens, UniProt P06493)
Sequence (P06493 whole entry): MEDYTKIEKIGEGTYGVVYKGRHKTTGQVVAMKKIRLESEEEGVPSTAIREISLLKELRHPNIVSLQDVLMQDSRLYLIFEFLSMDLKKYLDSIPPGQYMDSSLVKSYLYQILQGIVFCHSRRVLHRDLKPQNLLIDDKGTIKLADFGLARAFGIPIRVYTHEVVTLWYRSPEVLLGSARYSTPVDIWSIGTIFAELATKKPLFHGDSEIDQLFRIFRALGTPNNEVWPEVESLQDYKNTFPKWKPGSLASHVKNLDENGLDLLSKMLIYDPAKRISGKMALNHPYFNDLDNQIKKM
Sequence (P14635 whole entry partner): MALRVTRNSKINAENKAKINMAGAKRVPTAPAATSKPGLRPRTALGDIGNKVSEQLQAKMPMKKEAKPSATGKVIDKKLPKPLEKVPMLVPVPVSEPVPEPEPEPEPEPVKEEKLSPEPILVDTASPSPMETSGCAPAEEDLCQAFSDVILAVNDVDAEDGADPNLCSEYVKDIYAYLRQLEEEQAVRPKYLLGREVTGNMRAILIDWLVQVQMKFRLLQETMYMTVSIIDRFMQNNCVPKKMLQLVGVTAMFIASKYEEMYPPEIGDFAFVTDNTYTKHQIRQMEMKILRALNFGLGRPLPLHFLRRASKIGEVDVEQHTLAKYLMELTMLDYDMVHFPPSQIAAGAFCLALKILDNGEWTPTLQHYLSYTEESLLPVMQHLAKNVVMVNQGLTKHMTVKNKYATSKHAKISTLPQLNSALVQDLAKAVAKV
Assay: CDK protein kinase inhibition by ADP-Glo assay, CDK1-CYCLIN B
Assay type: biochemical
Details: ADP-Glo, 1000 μM ATP; Table 17; read-out: CDK1-CYCLINB, IC50
pIC50: −log10 of the molar value.

Example cases with answers are listed next.
>>> observed_result("O=C1NC2(CCCCc3cc(ccn3)Nc3cc(n[nH]3)[C@H]3CC[C@H](C3)O1)CC2")
"7.00 to 7.30"
>>> observed_result("C[C@@H]1CC23CC(C2)(C3)NC(=O)O[C@@H]2CC[C@@H](C2)c2cc([nH]n2)Nc2ccnc(c2)O1")
"7.30 to 8.00"
>>> observed_result("C[C@H]1CC23CC(C2)(C3)NC(=O)O[C@@H]2CC[C@@H](C2)c2cc([nH]n2)Nc2ccnc(c2)O1")
"≥ 8.00"
>>> observed_result("O=C1NC2CC3(C2)CC(C3)Oc2cc(ccn2)Nc2cc(n[nH]2)[C@H]2CC[C@H](C2)O1")
"7.30 to 8.00"

Then there is this compound:
Input `O=C1NC23CC(C/C=C/c4cc(ccn4)Nc4cc(n[nH]4)[C@H]4CC[C@H](C4)O1)(C2)C3` , output reported pIC50.
≥ 8.00

---

The entries below are paired with their reported IC50.
Molecular target: CDK9-CYCLIN T1 (Homo sapiens)
Sequence (P50750 whole entry): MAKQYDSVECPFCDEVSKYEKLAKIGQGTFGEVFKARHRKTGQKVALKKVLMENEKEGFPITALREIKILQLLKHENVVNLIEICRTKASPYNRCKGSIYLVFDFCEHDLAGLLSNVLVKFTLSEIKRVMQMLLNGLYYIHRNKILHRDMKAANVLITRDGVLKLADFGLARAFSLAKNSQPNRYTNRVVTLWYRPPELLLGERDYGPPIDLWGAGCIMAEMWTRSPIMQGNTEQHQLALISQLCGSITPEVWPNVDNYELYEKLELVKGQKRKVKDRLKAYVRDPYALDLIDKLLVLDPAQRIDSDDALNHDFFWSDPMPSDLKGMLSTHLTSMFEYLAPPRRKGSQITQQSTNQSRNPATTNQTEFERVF
Sequence (O60563 whole entry partner): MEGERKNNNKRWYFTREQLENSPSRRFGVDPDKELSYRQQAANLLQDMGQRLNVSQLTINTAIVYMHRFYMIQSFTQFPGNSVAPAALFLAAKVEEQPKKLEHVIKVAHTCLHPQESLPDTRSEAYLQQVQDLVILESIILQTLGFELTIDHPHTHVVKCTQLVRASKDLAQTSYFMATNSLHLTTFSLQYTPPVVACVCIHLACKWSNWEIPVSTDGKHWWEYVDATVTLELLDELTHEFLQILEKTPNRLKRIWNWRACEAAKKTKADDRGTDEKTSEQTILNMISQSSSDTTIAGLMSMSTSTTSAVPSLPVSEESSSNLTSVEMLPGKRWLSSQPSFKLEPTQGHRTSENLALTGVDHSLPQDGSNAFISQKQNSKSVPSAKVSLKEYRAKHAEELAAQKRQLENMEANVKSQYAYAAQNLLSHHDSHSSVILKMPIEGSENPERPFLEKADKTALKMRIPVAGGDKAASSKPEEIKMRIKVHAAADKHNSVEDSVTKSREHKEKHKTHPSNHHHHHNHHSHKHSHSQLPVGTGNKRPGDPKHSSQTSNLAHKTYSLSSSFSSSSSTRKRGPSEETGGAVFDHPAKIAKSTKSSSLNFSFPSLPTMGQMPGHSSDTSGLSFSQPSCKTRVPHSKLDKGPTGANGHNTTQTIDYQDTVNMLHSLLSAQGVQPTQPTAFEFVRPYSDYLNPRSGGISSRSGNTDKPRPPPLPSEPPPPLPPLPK
Assay: CDK protein kinase inhibition by ADP-Glo assay, CDK9-CYCLIN T1
Type: biochemical
Conditions: ADP-Glo, 1000 μM ATP; Table 19; read-out: CDK9-CYCLINT1, IC50

Example cases with answers are listed next.
>>> observed_result("C[C@@H]1CCC#Cc2cc(ccn2)Nc2cc(n[nH]2)[C@H]2CC[C@H](C2)OC(=O)N1")
"> 0.5 µM"
>>> observed_result("O=C1NCCCCC(F)(F)c2cc(ccn2)Nc2cc([nH]n2)[C@H]2CC[C@H](C2)O1")
"0.01 to 0.05 µM"
>>> observed_result("C[C@@H]1CCCCc2cc(ccn2)Nc2cc(n[nH]2)[C@H]2CC[C@H](C2)OC(=O)N1")
"0.1 to 0.5 µM"

Enter measured IC50, system CDK9-CYCLIN T1 (Homo sapiens), for the compound shown: `C[C@H]1CC/C=C/c2cc(ccn2)Nc2cc(n[nH]2)[C@H]2CC[C@H](C2)OC(=O)N1`
0.1 to 0.5 µM

Enter measured IC50, system CDK9-CYCLIN T1 (Homo sapiens), for the compound shown: `C[C@H]1CCCCc2cc(ccn2)Nc2cc(n[nH]2)[C@H]2CC[C@H](C2)OC(=O)N1`
0.1 to 0.5 µM

Enter measured IC50, system CDK9-CYCLIN T1 (Homo sapiens), for the compound shown: `C[C@@H]1CC/C=C/c2cc(ccn2)Nc2cc(n[nH]2)[C@H]2CC[C@H](C2)OC(=O)N1`
0.1 to 0.5 µM

Numbers sourced from patent US20240317777A1.
